System: NCI-H1792 cells
Assay: 3D-TGA
Format: cell-based, human
Settings: Homo sapiens; NCI-H1792, LUN, KRAS G12C; read-out: IC50 in 3D-TGA, KRAS G12C inhibitor alone
IC50 listing for selected molecules.

* C=C(F)C(=O)N1CCN(c2nc(OC[C@@H]3CCCN3C)nc3c2CCN(c2cccc4cccc(Cl)c24)C3)C[C@@H]1CC#N | > 1000 nM

Quick check: IC50 of `C=CC(=O)N1CCN(c2nc(=O)n(-c3c(C)ccnc3C(C)C)c3nc(-c4c(O)cccc4F)c(F)cc23)[C@@H](C)C1` ?
> 1000 nM

---

Tested on: PSN-1 cells
Experiment: 3D-TGA
Type: cell-based, human
Settings: PSN-1, PAN, KRAS G12R; read-out: IC50 in 3D-TGA, agent alone
observable: IC50 (µM)
Give just the numeric value; µM need not be written.

Write down the reported IC50 of `O=C1[O][Pt]2([NH][C@@H]3CCCC[C@H]3[NH]2)[O]C1=O` , test system: PSN-1 cells.
1

---

Tested on: SK-CO-1 cells
Assay: 3D-TGA
Type: cell-based
Settings: Homo sapiens, SK-CO-1, read-out: IC50 in 3D-TGA Afatinib
observable: pIC50
Just so you know, pIC50 here is -log10 of the concentration in molar units; reply with that number alone.

Quick check: pIC50 of `CN(C)C/C=C/C(=O)Nc1cc2c(Nc3ccc(F)c(Cl)c3)ncnc2cc1O[C@H]1CCOC1` ?
6.00

---

Test system: tumor models (cell lines)
Assay: Humanized 3D tumor growth assay (3D-TGA), tumor model panel / other cell lines
Assay type: cell-based, human
Settings: Homo sapiens, THP-1, THP-1, AML, NRAS G12D; agent alone; read-out: IC50 in 3D-TGA Talazoparib
Description: The humanized 3D tumor growth assay (3D-TGA) is an extracellular matrix (ECM)-based, 3D tumor model that more faithfully mimics the human tumor microenvironment (TME) with the goal of improving translational fidelity to patients. […] Five (5)-ethynyl-2′-deoxyuridine (EdU) data was represented as percentage EdU positive cells quantified by high content imaging from the Molecular Devices ImageXpress® Pico.
pIC50: −log10 of the molar value.
observable: pIC50

Quick check: pIC50 of Cn1ncnc1[C@H]1c2n[nH]c(=O)c3cc(F)cc(c23)N[C@@H]1c1ccc(F)cc1 [Talazoparib, talazoparib] ?
< 6.00

---

Test system: LS1034 cells
Assay: 3D-TGA
Type: cell-based, human
Conditions: LS1034, COL, KRAS A146T; read-out: IC50 in 3D-TGA, agent alone
observable: IC50 (nM)
Give just the numeric value; nM need not be written.

Quick check: IC50 of `O=C1[O][Pt]2([NH][C@@H]3CCCC[C@H]3[NH]2)[O]C1=O` ?
1000

---

Test system: tumor models (cell lines)
Test: Humanized 3D tumor growth assay (3D-TGA), tumor model panel / other cell lines
Format: cell-based, human
Settings: Homo sapiens, RPMI-8226, RPMI-8226, MM, KRAS G12A; agent alone; read-out: IC50 in 3D-TGA Bortezomib
observable: IC50

Quick check: IC50 of `CC(C)C[C@H](NC(=O)[C@H](Cc1ccccc1)NC(=O)c1cnccn1)B(O)O` ?
100 to 500 nM

---

Test system: tumor models (cell lines)
Assay: Humanized 3D tumor growth assay (3D-TGA), tumor model panel / other cell lines
Assay type: cell-based, human
Details: Homo sapiens, TF-1, AML, NRAS Q61P; agent alone; read-out: IC50 in 3D-TGA Decitabine
observable: IC50 (nM)
Give just the numeric value; nM need not be written.

Quick check: IC50 of `Nc1ncn([C@H]2C[C@H](O)[C@@H](CO)O2)c(=O)n1` ?
50

---

Tested on: HCC-44 cells
Assay: 3D-TGA
Type: cell-based, human
Conditions: Homo sapiens, HCC44, read-out: IC50 in 3D-TGA, KRAS G12C inhibitor alone
IC50 listing for selected compounds.

* C=CC(=O)N1CCN(c2nc(=O)n(-c3c(C)ccnc3C(C)C)c3nc(-c4c(O)cccc4F)c(F)cc23)[C@@H](C)C1 | > 1000 nM

Now for a further compound.
Quick check: IC50 of `C=C(F)C(=O)N1CCN(c2nc(OC[C@@H]3CCCN3C)nc3c2CCN(c2cccc4cccc(Cl)c24)C3)C[C@@H]1CC#N` ?
> 1000 nM

---

Test system: SK-CO-1 cells
Assay: 3D-TGA
Type: cell-based
Details: Homo sapiens, read-out: IC50 in 3D-TGA Erlotinib; SK-CO-1, COL, KRAS G12V; agent alone
observable: IC50 (µM)
Give just the numeric value; µM need not be written.

Quick check: IC50 of `C#Cc1cccc(Nc2ncnc3cc(OCCOC)c(OCCOC)cc23)c1` ?
1
